Target: Histone deacetylase 1 (Homo sapiens, UniProt Q13547)
Sequence (Q13547 whole entry): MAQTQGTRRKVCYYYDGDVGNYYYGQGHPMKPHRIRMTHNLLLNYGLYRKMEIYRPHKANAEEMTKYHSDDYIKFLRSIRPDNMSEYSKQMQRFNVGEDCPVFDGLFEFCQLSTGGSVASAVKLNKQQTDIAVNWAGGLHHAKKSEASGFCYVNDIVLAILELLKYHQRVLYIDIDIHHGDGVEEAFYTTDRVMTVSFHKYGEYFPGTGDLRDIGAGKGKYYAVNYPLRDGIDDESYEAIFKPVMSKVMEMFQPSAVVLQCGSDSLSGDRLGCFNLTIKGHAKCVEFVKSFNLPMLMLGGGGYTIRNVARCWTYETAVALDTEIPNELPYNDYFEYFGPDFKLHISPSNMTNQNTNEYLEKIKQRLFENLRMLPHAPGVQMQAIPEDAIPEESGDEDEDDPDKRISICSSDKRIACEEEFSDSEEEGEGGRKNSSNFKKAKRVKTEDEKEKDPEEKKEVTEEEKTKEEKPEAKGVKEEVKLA
Test: Inhibition of HDAC1 (unknown origin) using Fluor de Lys substrate by fluorescence assay relative to control
Conditions: read-out: IC50
pIC50: −log10 of the molar value.
Listing: pIC50 of selected compounds
endpoint_label: pIC50

{"smiles_input": "Cc1ccc(NC(=O)c2ccc(CNC(=O)/C=C3\\NC(=O)c4ccccc43)cc2)c(N)c1", "endpoint_label": "pIC50", "recorded_value": 5.24}
{"smiles_input": "Nc1cc(F)ccc1NC(=O)CCCCCCNC(=O)/C=C1\\NC(=O)c2ccccc21", "endpoint_label": "pIC50", "recorded_value": 5.80}
{"smiles_input": "Nc1ccccc1NC(=O)c1ccc(CNC(=O)/C=C2\\NC(=O)c3ccccc32)cc1", "endpoint_label": "pIC50", "recorded_value": 7.18}
{"smiles_input": "Nc1ccccc1NC(=O)c1ccc(CNC(=O)/C=C2\\NC(=O)c3ncccc32)cc1", "endpoint_label": "pIC50", "recorded_value": 6.12}
{"smiles_input": "Nc1cc(F)ccc1NC(=O)c1ccc(CNC(=O)/C=C2\\NC(=O)c3ccc(F)cc32)cc1", "endpoint_label": "pIC50", "recorded_value": 6.78}
{"smiles_input": "Nc1cc(F)ccc1NC(=O)c1ccc(CNC(=O)/C=C2\\NC(=O)c3ccccc32)cc1", "endpoint_label": "pIC50", "recorded_value": 7.19}
{"smiles_input": "Nc1cc(F)ccc1NC(=O)c1ccc(CNC(=O)/C=C2\\NC(=O)c3ccc(C(F)(F)F)cc32)cc1", "endpoint_label": "pIC50", "recorded_value": 6.31}

Attribution: ChEMBL document CHEMBL4387704
